Measured IC50 of IL-36γ signaling (HEK-Blue assay) accompanies every entry in the list below.
# Study System: T1, human IL1RAP on the cell surface (human, UniProt Q9NPH3 21-570)
# T1 sequence (looked up): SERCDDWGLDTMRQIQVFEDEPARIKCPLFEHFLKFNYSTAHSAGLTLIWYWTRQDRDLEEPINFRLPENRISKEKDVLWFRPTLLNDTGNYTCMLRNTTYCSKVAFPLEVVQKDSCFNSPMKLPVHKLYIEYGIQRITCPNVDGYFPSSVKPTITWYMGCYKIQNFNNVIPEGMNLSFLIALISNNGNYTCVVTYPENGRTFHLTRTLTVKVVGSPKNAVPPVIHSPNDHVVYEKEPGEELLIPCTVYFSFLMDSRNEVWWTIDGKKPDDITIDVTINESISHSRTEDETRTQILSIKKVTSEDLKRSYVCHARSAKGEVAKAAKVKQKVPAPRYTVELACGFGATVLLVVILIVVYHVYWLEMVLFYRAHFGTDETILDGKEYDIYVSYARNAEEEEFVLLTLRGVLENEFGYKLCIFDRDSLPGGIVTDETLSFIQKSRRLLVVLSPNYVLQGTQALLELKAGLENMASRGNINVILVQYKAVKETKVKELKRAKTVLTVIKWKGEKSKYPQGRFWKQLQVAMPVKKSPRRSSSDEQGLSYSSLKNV
# Test Name: cell-based or functional assay
Measure: IC50 of IL-36γ signaling (HEK-Blue assay)

Binder | Reading
h48D2 VH5:VL4 (antibody, human IgG1, kappa, L234A L235A, V domains shown, Humanized; also called VL4:VH5; humanized 48D2 variant VH5:VL4) VH: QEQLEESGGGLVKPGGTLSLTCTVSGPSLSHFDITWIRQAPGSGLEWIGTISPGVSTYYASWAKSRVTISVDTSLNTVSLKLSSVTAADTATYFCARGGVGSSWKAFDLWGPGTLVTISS VL: ELVMTQSPSSVSASVGDRVTITCQASESISTALAWYQQKPGKAPKLLIYKASTLPSGVPSRFSGSGSGTDFTLTINSLQPEDFATYYCQQGFSSGNVHNAFGGGTKVEIKR | 2.83 nM
h48D2 VH5:VL1 (antibody, human IgG1, kappa, L234A L235A, V domains shown, Humanized; also called VL1:VH5) VH: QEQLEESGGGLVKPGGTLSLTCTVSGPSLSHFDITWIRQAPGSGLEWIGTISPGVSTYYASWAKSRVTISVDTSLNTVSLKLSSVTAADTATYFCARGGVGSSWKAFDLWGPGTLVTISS VL: DIVMTQSPSSLSASVGDRVTITCQASESISTALAWYQQKPGKAPKLLIYKASTLPSGVPSRFSGSGSGTDFTLTISSLQPEDFATYYCQQGFSSGNVHNAFGGGTKVVIKR | 3.1 nM
h48D2 VH5:VL2 (antibody, human IgG1, kappa, L234A L235A, V domains shown, Humanized; also called VL2:VH5) VH: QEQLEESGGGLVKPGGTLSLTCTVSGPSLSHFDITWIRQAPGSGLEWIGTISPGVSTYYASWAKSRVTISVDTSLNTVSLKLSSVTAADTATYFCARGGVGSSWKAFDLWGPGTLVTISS VL: QIVLTQSPATLSASVGDRVTITCQASESISTALAWYQQKPGKAPKLLIYKASTLPSGVPSRFSGSGSGTEFTLTISSLQPDDSATYYCQQGFSSGNVHNAFGQGTKLEIKR | 0.253 nM

Values compiled from patent US20220242950A1.
